tested on: PC-3; experiment: NCI tumour cell line growth inhibition, 48 h
The source made the active and inactive calls. No stated cut-off is given here; in the data, active = GI50 up to about 1.1 µM and inactive = higher.
measured_property: GI50

# get_value(readout= GI50, system= PC-3) for `CC[C@@H]1CC[C@@H]2[C@H](CC[C@]3(C)[C@@H](OC(C)=O)CC[C@@H]23)[C@H]1COC(C)=O` 30.1 µM (inactive)

Now consider `CSC1=N/C(=C\c2ccc(C)cc2)C(=O)N1CN1CCCCC1` and answer again. 72.4 µM (inactive)

Please give the result for CC(C)OCC1CC(CC(=O)Nc2nncs2)C(=O)O1 (configuration not stated) too. > 100 µM (inactive)

Same again, this time with Nc1ncnc2c1ncn2C1C=C(CO)C(O)C1O (configuration not stated) 6.92 µM (inactive)

====

# GI50 per record follows
system: CAKI-1; experiment: NCI tumour cell line growth inhibition, 48 h
Active and inactive are the calls of the source. Rule as the data show it: active = GI50 up to about 1.1 µM and inactive = higher.

Here are 10 compounds together with their reported answers.
>  <compound>
CC1(C)O[C@H]2Cn3c(c(C#N)c4ccccc43)[C@H]2O1

>  <GI50>
85.1 µM (inactive)

$$$$
>  <compound>
CC(O)=NC(Cc1ccc2ccccc2c1)C(O)=NC(Cc1ccc(Cl)cc1)C(O)=NC(Cc1c[nH]c2ccccc12)C(O)=NC(CO)C(O)=NC(Cc1ccc(O)cc1)C(O)=NC(CCCN=C(N)N)C(O)=NC(CC(C)C)C(O)=NC(CCCN=C(N)N)C(=O)N1CCCC1C(O)=NC(C)C(=N)O (stereo not given)

>  <GI50>
54.7 µM (inactive)

$$$$
>  <compound>
N/C(=N\c1ccc(Cl)cc1)NS(=O)(=O)c1ccc(-c2ccccn2)s1

>  <GI50>
2.07 µM (inactive)

$$$$
>  <compound>
O=C(Nc1ccccc1)N1CC(CN2CCN(c3ccccc3)CC2)OC1=O (stereo not given)

>  <GI50>
> 100 µM (inactive)

$$$$
>  <compound>
Nc1n[n+]2cc(-c3ccccc3)n(CC(=O)c3ccccc3)c2s1

>  <GI50>
> 100 µM (inactive)

$$$$
>  <compound>
CC1CN(c2ccc(Cl)cc2)CC(C)(C)OC(=O)O1 (stereo not given)

>  <GI50>
> 100 µM (inactive)

$$$$
>  <compound>
O=C(c1ccccc1O)c1cc(-c2ncc3c(=O)c4ccccc4oc3n2)c(-c2ccccc2O)[nH]c1=O

>  <GI50>
8.02 µM (inactive)

$$$$
>  <compound>
Nc1nc(Cl)cc(NCC2(CO)CCCCC2)n1

>  <GI50>
> 100 µM (inactive)

$$$$
>  <compound>
S=c1[nH]nc(Cn2c3ccc(Br)cc3c3nc4ccccc4nc32)n1C1CCCCC1

>  <GI50>
34.2 µM (inactive)

$$$$
>  <compound>
O=C(/C=C/c1ccccc1Cl)c1ccc(Cl)cc1Cl

>  <GI50>
14.4 µM (inactive)

$$$$

I'm curious: which GI50 was measured for CN1C(=O)C(O)CC1c1ccccc1F (stereo not given) tested on CAKI-1? > 100 µM (inactive)

Follow-up item: `COC(=O)[C@]1(c2ccc(N(C)C)cc2OC)C[C@@H]2CCCN(CCc3c1[nH]c1ccccc31)C2` 54.1 µM (inactive)

Let us now turn to `CC[C@@H]1CC[C@@H]2[C@H](CC[C@]3(C)[C@@H](OC(C)=O)CC[C@@H]23)[C@H]1COC(C)=O` 29 µM (inactive)

Try this compound too: O=NN(CCF)C(=O)NC1CC2CCC1C2 (stereo not given) > 100 µM (inactive)

Would you kindly repeat that for `CCOC(=O)c1nc2ccc(C(F)(F)F)cc2nc1Oc1ccc(C(=O)OC)cc1` ? > 100 µM (inactive)

Repeat with O=C1C2C3CCC(C2C(=O)N1CO)C1C2C(=O)N(CO)C(=O)C2C31 (stereo not given) > 96.6 µM (inactive)
